Recorded values, source patent US20250387400A1.

Consider the following compounds and their measured log10 IC50 readings.
target: catalytic kinase (JH1) domain of human JAK3 (Homo sapiens, UniProt P52333); construct: Catalytic activities of recombinant JAK2, JAK3 and TYK2 kinase domain; assay: ADP-Glo kinase assay, JAK3 kinase domain; assay type: biochemical; settings: 0.3 nM recombinant JAK3 kinase domain, 50 μM JAK3-974 peptide, 4 μM ATP, 100 minutes; read-out: JAK3 biochem IC50 (nM) Mean
Sequence (P52333 822-1111 limits assumed): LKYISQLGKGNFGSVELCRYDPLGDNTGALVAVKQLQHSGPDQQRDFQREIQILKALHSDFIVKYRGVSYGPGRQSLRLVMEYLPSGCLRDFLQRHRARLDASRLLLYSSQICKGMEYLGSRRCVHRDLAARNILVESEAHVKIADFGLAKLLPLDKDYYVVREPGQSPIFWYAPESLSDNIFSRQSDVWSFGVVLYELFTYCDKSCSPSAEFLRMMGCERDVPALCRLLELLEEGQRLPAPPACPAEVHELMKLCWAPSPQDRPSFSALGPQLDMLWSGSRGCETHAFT
Remember, log10 of IC50, in nM.

Cn1cc(-c2nc3c(N4CC5CCC(C4)N5[C@H]4C[C@@H](C#N)C4)ccnc3[nH]2)cn1 [Example 4]; 1.81
COc1cc(-c2cc3c(N4CC5CCC(C4)N5C4CC(C(F)F)C4)ccnc3[nH]2)ccn1 (stereo not shown) [Example 19]; 2.89
Cn1cc(-c2cc3c(N4CC5CCC(C4)N5[C@H]4C[C@@H](C#N)C4)ncnc3[nH]2)cn1 [Example 64]; 2.31
COCC[C@]1(C#N)C[C@H](N2C3CCC2CN(c2ccnn4cc(-c5cnn(C)c5)cc24)C3)C1 [Example 38]; 3.86

Input Cn1cc(-c2nc3c(N4C[C@H]5CC[C@@H](C4)N5C4CC(C(F)F)C4)ccnc3[nH]2)cn1 (stereo partly shown) [Example 10] . Output log10 IC50: 3.13

Input Cn1cc(-c2cc3c(N4CC5CCC(C4)N5[C@H]4C[C@](C)(C#N)C4)ccnn3c2)cn1 [Example 34] . Output log10 IC50: 3.41

Input Cn1cc(-c2nc3c(N4CC5CCC(C4)N5[C@H]4C[C@@](C)(C#N)C4)ccnc3[nH]2)cn1 [Example 2] . Output log10 IC50: 1.83
